Origin of the recorded values: patent US8536168B2

tested on: Gli-luciferase activity; test: Reporter gene assay (RGA) in TMHh12 cells, antagonism of Gli-luciferase activity in the presence of a Smo agonist; type: cell-based; details: 25 nM small molecule Smo agonist, read-out: RGA (25 nM Smo agonist) IC50
property: IC50

Below are worked cases with known answers.
NCc1ccc(C2CCN(c3nnc(Cc4ccccc4)c4ccccc34)CC2)cc1 :: 1 to 10 µM
Cc1cc(Cc2ccc(F)cc2)nnc1N1CCN(c2ccc(C(F)(F)F)cn2)CC1 :: 1 to 10 µM
N#Cc1ccc(N2CCC(c3cn(Cc4ccccc4)c4ccccc34)CC2)nc1 :: 1 to 10 µM
O=C(NC1CNC1)c1ccc(N2CCN(c3nnc(Cc4ccccc4)c4ccccc34)CC2)nc1 [Example 54y] :: 1 to 10 µM
c1ccc(Cc2nnc(N3CCC(c4c[nH]c5ccccc45)CC3)c3ccccc23)cc1 :: 1 to 10 µM

Please look at the following molecule next.
Prompt: Identify measured IC50 associated with "CN(CCO)C(=O)c1ccc(N2CCN(c3nnc(Cc4ccccc4Cl)c4ccccc34)CC2)nc1"
Response: 0.1 to 1 µM
